// data source = ChEMBL document CHEMBL4825782

Assay: Stability in human plasma assessed as half life at 1 uM by LC-MS/MS analysis
Format: ADME, cell-free
measure.name: half-life at 1 µM (h)

compound: O=C1CCC(N2C(=O)c3ccccc3C2=O)C(=O)N1 (stereo not given) [THALIDOMIDE]
half-life at 1 µM, h: 0.367

compound: O=C1CCC(N2Cc3ccccc3C2=O)C(=O)N1 (stereo not given)
half-life at 1 µM, h: 1.98

I = Nc1cccc2c1C(=O)N(C1CCC(=O)NC1=O)C2=O (stereo not given) [POMALIDOMIDE]
II = Nc1cccc2c1CN(C1CCC(=O)NC1=O)C2=O (stereo not given) [LENALIDOMIDE]
Req: Response body: label of entry with the larger half-life at 1 µM; valid values I , II . Write down the label of the entry you select.
Resp: II
(II: 4.73 h, I: 2.65 h)

----------
Assay: Drug accumulation in human MOLT-4 cells assessed as intracellular unbound fraction incubated for 4 hrs by LC-MS analysis
Assay type: ADME, cell-based
measure.name: fraction unbound at 4 h

Worked examples, 3 compounds total:
compound: O=C1CCC(N2Cc3ccccc3C2=O)C(=O)N1 (stereo not given)
fraction unbound at 4 h: 1
--
compound: Nc1cccc2c1CN(C1CCC(=O)NC1=O)C2=O (stereo not given) [LENALIDOMIDE]
fraction unbound at 4 h: 1
--
compound: O=C1CCC(N2C(=O)c3ccccc3C2=O)C(=O)N1 (stereo not given) [THALIDOMIDE]
fraction unbound at 4 h: 0.34

I = Nc1cccc2c1C(=O)N(C1CCC(=O)NC1=O)C2=O (stereo not given) [POMALIDOMIDE]
II = O=C1CC[C@H](N2Cc3c(OCc4ccc(CN5CCOCC5)cc4)cccc3C2=O)C(=O)N1 [IBERDOMIDE]
Req: Please indicate which has the smaller reported fraction unbound at 4 h: I , or II . Write down the label of the entry you select.
Resp: II
(II: 0.06, I: 0.9)

----------
Experiment: Metabolic stability in human liver microsome assessed as half-life at 1 uM in presence of NADPH incubated up to 60 mins by LC-MS/MS analysis
Assay type: ADME
Conditions: liver microsomes
As shown below, each of these compounds has a reported half-life at 1 µM value.

compound: Nc1cccc2c1C(=O)N(C1CCC(=O)NC1=O)C2=O (stereo not drawn) [POMALIDOMIDE]
result: > 3.1 h
--
compound: O=C1CCC(N2Cc3ccccc3C2=O)C(=O)N1 (stereo not drawn)
result: > 3.1 h

half-life at 1 µM reading for O=C1CCC(N2C(=O)c3ccccc3C2=O)C(=O)N1 (stereo not drawn) [THALIDOMIDE] : > 3.1 h
